target.desc: Cytochrome P450 3A4 (Homo sapiens, UniProt P08684);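 note: confirmatory qHTS run detecting inhibitors and substrates of CYP3A4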
Sequence (P08684 whole entry): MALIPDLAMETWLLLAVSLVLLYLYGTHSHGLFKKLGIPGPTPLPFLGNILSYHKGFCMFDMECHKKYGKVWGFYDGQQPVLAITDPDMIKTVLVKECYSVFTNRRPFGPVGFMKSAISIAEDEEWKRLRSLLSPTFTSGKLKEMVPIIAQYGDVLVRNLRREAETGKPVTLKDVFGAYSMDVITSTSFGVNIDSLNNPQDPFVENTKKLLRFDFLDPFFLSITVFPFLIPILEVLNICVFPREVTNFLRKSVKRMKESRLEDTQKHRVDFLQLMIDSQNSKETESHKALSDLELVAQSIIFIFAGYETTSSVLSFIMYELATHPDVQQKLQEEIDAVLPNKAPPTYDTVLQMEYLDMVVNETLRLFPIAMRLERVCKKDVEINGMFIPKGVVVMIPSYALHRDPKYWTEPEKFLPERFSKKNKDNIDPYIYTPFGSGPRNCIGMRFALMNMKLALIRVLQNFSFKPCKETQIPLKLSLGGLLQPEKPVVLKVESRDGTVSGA
run.parameters: Potency
reported.property: AC50

>  <compound>
COC(=O)[C@@H]1C[C@@H]2CC[C@@H](O)C[C@@H]2N1Cc1ccc(N2CCOCC2)cc1

>  <observed.result>
3.98 µM (inconclusive)

$$$$
>  <compound>
CCCN1[C@H](C(=O)OC)C[C@@H]2CC[C@@H](O)C[C@@H]21

>  <observed.result>
15.8 µM (inconclusive)

$$$$
>  <compound>
CNNC

>  <observed.result>
31.6 µM (inconclusive)

$$$$
>  <compound>
C=C(C)C(O)/C=C/c1ccccc1OC (stereo not given)

>  <observed.result>
2.51 µM (inconclusive)

$$$$
>  <compound>
COC(=O)c1ccc(C23CC4(C2)[C@H](CN(C)[C@@H]4c2ccccc2)C3c2ccc(C(F)(F)F)cc2)cc1 (stereo not given in full)

>  <observed.result>
15.8 µM (inconclusive)

$$$$
